System: Salmonella typhimurium
test-summary: Antimutagenic activity in Salmonella Typhimurium TA100 assessed as inhibition of ethyl methanesulfonate-induced mutation at 7.8 uM treated for 30 mins and measured after 2 days by modified Ames test
Assay type: functional, Salmonella enterica subsp. enterica serovar Typhimurium
details: Salmonella enterica
What inhibition at 7.8 µM was measured for each of the following?
Give bare numbers, in %.

Solved entries:
molecule	unit-info	inhibition at 7.8 µM
COC(=O)/C=C/c1ccc(OC)c(CC=C(C)C)c1	%	21.5
CC(C)=CCc1cc(/C=C/CO)ccc1O	%	27.1
COC(=O)CCc1ccc(O)c(CC=C(C)C)c1	%	38.5
COC(=O)/C=C/c1ccc(O)cc1 [METHYL P-HYDROXYCINNAMATE]	%	0.9
O=C(O)/C=C/c1ccc(O)cc1	%	13.6

Hello, I would appreciate it if you could give inhibition at 7.8 µM for each entry below.
1. COC(=O)/C=C/c1ccc(O)c(CC=C(C)C)c1
2. CC(C)=CCc1cc(/C=C/C(=O)O)ccc1O

[30.2, 0.6]
